system: CIT; conditions: concentration: 1 μM,replicates: in singlicate; n = 1;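 note: KINOMEscan kinase panel screen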
ASSAY_ENDPOINT: %Inh (%)

[[record]]
smiles_representation = "Cn1ccc2ncnc(Oc3ccc(NC(=O)Nc4cccc(C(F)(F)F)c4)c(F)c3)c21"
assay_endpoint = "%Inh"
output_unit = "%"
measured = 78

[[record]]
smiles_representation = "O=C(Nc1ccccc1)c1cccc(Oc2ccc3nccn3n2)c1"
assay_endpoint = "%Inh"
output_unit = "%"
measured = 32

[[record]]
smiles_representation = "Cl.Cl.NC[C@H](CC1CCCCC1)NC(=O)c1ccc(-c2ccnc3[nH]ccc23)s1"
assay_endpoint = "%Inh"
output_unit = "%"
measured = 99

[[record]]
smiles_representation = "Cn1ccc2ncnc(Oc3ccc(NC(=O)Nc4cc(C(C)(C)C)on4)c(Cl)c3)c21"
assay_endpoint = "%Inh"
output_unit = "%"
measured = 63

[[record]]
smiles_representation = "FC(F)(F)c1cc(Br)cc(Nc2nccc(-c3cnn4ncccc34)n2)c1"
assay_endpoint = "%Inh"
output_unit = "%"
measured = 6

[[record]]
smiles_representation = "C[C@@H](Oc1cc(-n2cnc3ccc(-c4ccncc4)cc32)sc1C(N)=O)c1ccccc1Cl"
assay_endpoint = "%Inh"
output_unit = "%"
measured = 98.8

[[record]]
smiles_representation = "Cc1ccc2c(-c3ccnc(Nc4ccc(C(F)(F)F)cc4)n3)cnn2n1"
assay_endpoint = "%Inh"
output_unit = "%"
measured = 19


* * *

system: RIPK2; conditions: concentration: 1 μM,replicates: in singlicate; n = 1
ASSAY_ENDPOINT: %Inh

[[record]]
compound = "Cn1ccc2ncnc(Oc3ccc(NC(=O)Nc4cnn(C(C)(C)C)c4)c(Cl)c3)c21"
measured = "40%"

[[record]]
compound = "CN1CCN(CCNc2nc3cc(Oc4ccc(NC(=O)Nc5cc(C(F)(F)F)ccc5F)cc4)ccc3[nH]2)CC1.Cl.Cl [GW768504]"
measured = "1%"

[[record]]
compound = "Cc1n[nH]c2cc(Nc3ccnc(Nc4cccc(CN5CCOCC5)c4)n3)ccc12 [GW682569]"
measured = "79%"

[[record]]
compound = "Cc1ccn2nc(-c3ccc(F)cc3)c(-c3ccncc3)c2c1.Cl [GW457859]"
measured = "41%"


* * *

tested on: PLK3; settings: concentration: 1 μM,replicates: in singlicate; n = 1
ASSAY_ENDPOINT: %Inh

[[record]]
smiles_representation = "CC(=O)Nc1nc2cnc(Nc3cc(NC(=O)c4cccc(CC(C)(C)C#N)c4)ccc3C)nc2s1"
assay_endpoint = "%Inh"
measured = "3%"

[[record]]
smiles_representation = "CCCC(=O)Nc1n[nH]c2ncccc12"
assay_endpoint = "%Inh"
measured = "7%"

[[record]]
smiles_representation = "Cn1ccc2ncnc(Oc3ccc(NC(=O)Nc4cc(C(C)(C)C)on4)c(Cl)c3)c21"
assay_endpoint = "%Inh"
measured = "7%"

[[record]]
smiles_representation = "Cn1cc(-c2cccc3c(N)c(C(N)=O)nnc23)cn1"
assay_endpoint = "%Inh"
measured = "17%"

[[record]]
smiles_representation = "O=c1[nH]cc(-c2ccc(O)cc2)c2sc(-c3ccncc3)cc12"
assay_endpoint = "%Inh"
measured = "0%"

[[record]]
smiles_representation = "CCOC(=O)N1CCC(n2cnc(-c3ccc(F)cc3)c2-c2ccnc(N)n2)CC1"
assay_endpoint = "%Inh"
measured = "0%"

[[record]]
smiles_representation = "CN1CCN(CCNc2nc3cc(Oc4ccc(NC(=O)Nc5cc(C(F)(F)F)ccc5F)cc4)ccc3[nH]2)CC1.Cl.Cl"
assay_endpoint = "%Inh"
measured = "0%"

[[record]]
smiles_representation = "C[C@@H]1CNc2c(sc3ccc4nc(-c5ccncc5)ccc4c23)C(=O)N1"
assay_endpoint = "%Inh"
measured = "8%"

[[record]]
smiles_representation = "Cc1n[nH]c2cc(Nc3ccnc(Nc4cccc(CN5CCOCC5)c4)n3)ccc12"
assay_endpoint = "%Inh"
measured = "53%"

[[record]]
smiles_representation = "Cl.Nc1n[nH]c2cc(-c3ccccn3)ccc12"
assay_endpoint = "%Inh"
measured = "0%"


* * *

Reported %Inh values follow for various molecules
test system: PIK3CD; details: concentration: 1 μM,replicates: in singlicate; n = 1
ASSAY_ENDPOINT: %Inh (%)

[[record]]
molecule = "Cl.c1ccc(Oc2ccc(Nc3ccnc4cc(-c5ccc(CN6CCNCC6)o5)ccc34)cc2)nc1 [GW567142]"
assay_endpoint = "%Inh"
measured = 0

[[record]]
molecule = "CCn1c(-c2nonc2N)nc2cncc(Br)c21 [SB-738004]"
assay_endpoint = "%Inh"
measured = 34

[[record]]
molecule = "O=C(NCC1CC1)c1ccc(-c2cc(C(=O)NC3CC3)ccc2F)cc1 [GW810445]"
assay_endpoint = "%Inh"
measured = 0

[[record]]
molecule = "CN(c1ccc2c(c1)nc(NCc1ccc(F)cc1)n2C)c1ccnc(Nc2ccc(CS(C)(=O)=O)cc2)n1.Cl [GW813244]"
assay_endpoint = "%Inh"
measured = 0


* * *

system: MEK4; construct: gene MAP2K4; details: concentration: 1 μM,replicates: in singlicate; n = 1
ASSAY_ENDPOINT: %Inh (%)

[[record]]
smiles_representation = "Cn1ccc2ncnc(Oc3ccc(NC(=O)Nc4cncc(C(F)(F)F)c4)c(Cl)c3)c21"
assay_endpoint = "%Inh"
output_unit = "%"
measured = 1

[[record]]
smiles_representation = "NC(=O)c1ccc(-c2cc3ncnc(SCC(=O)O)c3s2)cc1"
assay_endpoint = "%Inh"
output_unit = "%"
measured = 0

[[record]]
smiles_representation = "O=C1NCCc2[nH]c(-c3ccncc3)cc21"
assay_endpoint = "%Inh"
output_unit = "%"
measured = 0

[[record]]
smiles_representation = "CN(c1cccc(CNc2nc(Nc3ccc4c(c3)CC(=O)N4)ncc2C(F)(F)F)c1)S(C)(=O)=O"
assay_endpoint = "%Inh"
output_unit = "%"
measured = 35

[[record]]
smiles_representation = "C[C@@H](Oc1cc(-n2cnc3cc(-c4ccncc4)ccc32)sc1C(N)=O)c1ccccc1Cl"
assay_endpoint = "%Inh"
output_unit = "%"
measured = 37

[[record]]
smiles_representation = "COC(=O)c1cccc(NC(=O)NC2CCN(c3ccnc(NCc4ccc(F)cc4)n3)CC2)c1"
assay_endpoint = "%Inh"
output_unit = "%"
measured = 0

[[record]]
smiles_representation = "c1ccc(Oc2ccc(Nc3ccnc4ccc(-c5ccccn5)cc34)cc2)cc1"
assay_endpoint = "%Inh"
output_unit = "%"
measured = 16

[[record]]
smiles_representation = "C[C@@H]1CCN(C(=O)N2CCCC2)C[C@@H]1N(C)c1ncnc2[nH]ccc12"
assay_endpoint = "%Inh"
output_unit = "%"
measured = 13

[[record]]
smiles_representation = "COC(=O)Nc1nc2cc(Oc3ccc(NC(=O)Nc4cc(C(F)(F)F)ccc4Cl)cc3)ccc2[nH]1.Cl"
assay_endpoint = "%Inh"
output_unit = "%"
measured = 4


* * *

test system: RSK4(Kin.Dom.1-N-terminal); construct: gene RPS6KA6; conditions: concentration: 1 μM,replicates: in singlicate; n = 1
%Inh below 7% gives not fulfilled; %Inh at or above it gives fulfilled.

[[record]]
compound = "FC(F)(F)c1cc(Br)cc(Nc2nccc(-c3cnn4ncccc34)n2)c1"
class_label = "fulfilled"

[[record]]
compound = "CC(=O)c1c(-c2ccncc2)[nH]c(-c2ccncc2)c1C"
class_label = "not fulfilled"

[[record]]
compound = "CC(C(=O)NC1CCN(c2ccnc(Nc3ccc(F)cc3)n2)C1)c1ccc(Cl)cc1 (stereo not shown)"
class_label = "not fulfilled"

[[record]]
compound = "C[C@@H](Oc1cc(-n2cnc3ccc(-c4ccncc4)cc32)sc1C(N)=O)c1ccccc1Cl"
class_label = "fulfilled"

[[record]]
compound = "OCCn1cc(-c2cnc3nnn(Cc4ccc5ncccc5c4)c3n2)cn1"
class_label = "not fulfilled"

[[record]]
compound = "C[C@@H](Oc1cc(-n2cnc3cc(-c4ccncc4)ccc32)sc1C(N)=O)c1ccccc1Cl"
class_label = "fulfilled"


* * *

tested on: TXK; settings: concentration: 1 μM,replicates: in singlicate; n = 1
Criterion: %Inh meeting or surpassing 10%. Met: 1 (yes). Not met: 0 (no).

[[record]]
compound = "CC(=O)Nc1ccc(-c2cc3ncnc(SCC(=O)O)c3s2)cc1"
class_label = "1 (yes)"

[[record]]
compound = "Cc1n[nH]c2cc(Nc3ccnc(Nc4cccc(CN5CCOCC5)c4)n3)ccc12"
class_label = "1 (yes)"

[[record]]
compound = "CC(=O)c1c(-c2ccncc2)[nH]c(-c2ccncc2)c1C"
class_label = "1 (yes)"

[[record]]
compound = "COC(=O)c1cccc(NC(=O)NC2CCN(c3ccnc(Nc4cc(OC)c(OC)c(OC)c4)n3)C2)c1 (stereo not shown)"
class_label = "0 (no)"

[[record]]
compound = "CN(c1cccc(CNc2nc(Nc3ccc4c(c3)CC(=O)N4)ncc2C(F)(F)F)c1)S(C)(=O)=O"
class_label = "0 (no)"

[[record]]
compound = "COc1cc2ncn(-c3cc(OCC4CCCCC4)c(C(N)=O)s3)c2cc1OC"
class_label = "0 (no)"

[[record]]
compound = "CCN1CCN(CCCC(=O)Nc2n[nH]c3nc(-c4ccc(O)cc4)c(Br)cc23)CC1"
class_label = "0 (no)"

[[record]]
compound = "Cn1ccc2ncnc(Oc3ccc(NC(=O)Nc4cc(C(C)(C)C)on4)c(Cl)c3)c21"
class_label = "0 (no)"

[[record]]
compound = "CCn1c(-c2nonc2N)nc2cncc(Br)c21"
class_label = "0 (no)"

[[record]]
compound = "FC(F)(F)c1cc(Br)cc(Nc2nccc(-c3cnn4ncccc34)n2)c1"
class_label = "0 (no)"

[[record]]
compound = "O=C(Nc1cccc(C(F)(F)F)c1)c1cccc(Oc2ccc3nccn3n2)c1"
class_label = "0 (no)"

[[record]]
compound = "CS(=O)c1ccc(-c2coc3ccc(-c4n[nH]c(=O)o4)cc23)cc1 (stereo not shown)"
class_label = "0 (no)"

[[record]]
compound = "CNC(=O)c1ccccc1Nc1nc(Nc2cccc(CS(C)(=O)=O)c2)ncc1C.O=CO"
class_label = "1 (yes)"

[[record]]
compound = "COc1cc(Nc2nccc(N3CCC(NC(=O)c4cccc(C#N)c4)C3)n2)cc(OC)c1OC (stereo not shown)"
class_label = "0 (no)"

[[record]]
compound = "C[C@@H](Oc1cc(-n2cnc3cc(-c4ccncc4)ccc32)sc1C(N)=O)c1ccccc1Cl"
class_label = "0 (no)"

[[record]]
compound = "Cl.Cl.NC[C@H](CC1CCCCC1)NC(=O)c1ccc(-c2ccnc3[nH]ccc23)s1"
class_label = "0 (no)"

[[record]]
compound = "CN(c1ccc2c(c1)nc(NCc1ccc(F)cc1)n2C)c1ccnc(Nc2ccc(CS(C)(=O)=O)cc2)n1.Cl"
class_label = "1 (yes)"

[[record]]
compound = "CC(C(=O)NC1CCN(c2ccnc(Nc3ccc(F)cc3)n2)C1)c1ccc(Cl)cc1 (stereo not shown)"
class_label = "0 (no)"

[[record]]
compound = "Cl.c1ccc(Oc2ccc(Nc3ccnc4cc(-c5ccc(CN6CCNCC6)o5)ccc34)cc2)nc1"
class_label = "1 (yes)"

[[record]]
compound = "CS(=O)(=O)c1cccc(CNc2nc(Nc3ccc4c(c3)[C@@H]3C[C@@H]4CNC3=O)ncc2C(F)(F)F)c1"
class_label = "1 (yes)"

[[record]]
compound = "NC(=O)Nc1sc(-c2ccc(F)cc2)cc1C(N)=O"
class_label = "1 (yes)"

[[record]]
compound = "O=C(Nc1ccc(Oc2ccc3nc(NC(=O)C4CC4)cn3n2)c(F)c1)c1cccn(-c2ccccc2)c1=O"
class_label = "1 (yes)"

[[record]]
compound = "Cl.Nc1n[nH]c2cc(-c3ccccn3)ccc12"
class_label = "0 (no)"

[[record]]
compound = "Cn1ccc2ncnc(Oc3ccc(NC(=O)Nc4ccnc(C(F)(F)F)c4)c(Cl)c3)c21"
class_label = "0 (no)"

[[record]]
compound = "CC(C)S(=O)(=O)N1CCN(Cc2ccc3c(c2)nc(NC(=O)c2ccsc2)n3C[C@H](O)c2ccccc2)CC1"
class_label = "0 (no)"

[[record]]
compound = "Cn1ccc2ncnc(Oc3ccc(NC(=O)Nc4cccc(C(F)(F)F)c4)c(F)c3)c21"
class_label = "0 (no)"

[[record]]
compound = "COc1cccc(C2=C(Nc3cccc(Cl)c3)C(=O)NC2=O)c1"
class_label = "0 (no)"

[[record]]
compound = "CC(C)c1nc(-c2cccc(NS(=O)(=O)c3ccccc3)c2)c(-c2ccnc(Nc3ccc4c(c3)CN(C)CC4)n2)s1"
class_label = "1 (yes)"

[[record]]
compound = "C[C@@H](Oc1cc(-n2cnc3ccc(-c4ccncc4)cc32)sc1C(N)=O)c1ccccc1Cl"
class_label = "1 (yes)"

[[record]]
compound = "Cc1cccc2c(-c3ccncc3)c(-c3ccc(F)cc3)nn12.Cl"
class_label = "0 (no)"

[[record]]
compound = "C[C@@H]1CNc2c(sc3ccc4nc(-c5ccc(O)cc5)ccc4c23)C(=O)N1"
class_label = "0 (no)"

[[record]]
compound = "CCCC(=O)Nc1n[nH]c2ncccc12"
class_label = "0 (no)"

[[record]]
compound = "COc1cccc(CNC(=O)NC2CCN(c3ccnc(Nc4cc(OC)c(OC)c(OC)c4)n3)C2)c1 (stereo not shown)"
class_label = "0 (no)"

[[record]]
compound = "Cc1ccc2c(-c3ccnc(Nc4ccc(C(F)(F)F)cc4)n3)cnn2n1"
class_label = "0 (no)"


Cited source for all entries: paper PMC5540273
